System: SK-MEL-2 melanoma
Assay overview: NCI tumour cell line growth inhibition, 48 h; in the data active = GI50 below about 0.43 µM; inactive = the rest
Could you please pick one outcome from this set? 1.0 = active, 0.0 = inactive

# count of solved cases: 5
[[record]]
compound = "CN1C(=O)C2(c3ccccc31)N(c1ccc(Cl)cc1)C(=O)C2(c1ccccc1)c1ccccc1 (stereo unspecified)"
system_under_test = "SK-MEL-2 melanoma"
assigned_class = 0.0

[[record]]
compound = "COc1nnc2ccc(N3CCC(c4ccc(OCCN5CCN(C)C(=O)[C@H]5C)cc4)CC3)nn12"
system_under_test = "SK-MEL-2 melanoma"
assigned_class = 0.0

[[record]]
compound = "COc1ccc2c(OCc3nnc4ccc(-c5ccccc5)nn34)ccnc2c1"
system_under_test = "SK-MEL-2 melanoma"
assigned_class = 0.0

[[record]]
compound = "O=C1/C=C/[C@@H](O)[C@@H]2C[C@@H](O)C[C@H]2/C=C/CCC[C@H](C(F)(F)F)O1"
system_under_test = "SK-MEL-2 melanoma"
assigned_class = 1.0

[[record]]
compound = "CCC(=O)c1c(C(F)(F)F)n([O-])c2cc(F)c(F)cc2[n+]1=O"
system_under_test = "SK-MEL-2 melanoma"
assigned_class = 0.0


Now take the following compound into account.
Req: Hi, do you know how `CCCCCCCCCCCCCC[C@@H](O)[C@H]1CC[C@H]([C@H]2CC[C@H]([C@H](O)CCCCCC[C@@H](O)CC3=C[C@H](C)OC3=O)O2)O1` came out in this test?
Resp: 0.0
